# System: ACHN renal
# TEST DESCRIPTION: NCI-60 one-dose screen, 48 h
# CONDITION CONTEXT: 10 µM unless noted
Compounds without any hit were thinned out: in the full panel of roughly 83,000, 20% have a hit. Calls of active or inactive are those of the source. How the source made its calls: active means growth percent below 10; inactive means the rest.
Response enum: active, inactive

MOLECULE: O=c1[nH]c2c3ccncc3cc(-c3cccc(Cl)c3)c2c2cnccc12
MEASUREMENT TARGET: ACHN renal
CLASS NAME: inactive
//
MOLECULE: COc1cnc2c(c1)C(=O)c1c-2n(CCCNCCN2CCOCC2)c(=O)c2cc([N+](=O)[O-])ccc12
MEASUREMENT TARGET: ACHN renal
CLASS NAME: active
//
MOLECULE: O=C1c2cccc3cccc(c23)C(=O)N1CC#Cc1ccc2c3c(cccc13)C(=O)N(CCO)C2=O
MEASUREMENT TARGET: ACHN renal
CLASS NAME: inactive
//
MOLECULE: Cc1cccc(C)c1NC(=O)CSC(=S)N1CCN(CCOCCO)CC1
MEASUREMENT TARGET: ACHN renal
CLASS NAME: inactive
//
MOLECULE: COC1=C(Br)C(=O)C(OC)=C(Br)C1=O
MEASUREMENT TARGET: ACHN renal
CLASS NAME: inactive

Request: # lookup: test call for N#CC1=C(N)Oc2ccc3ccccc3c2C1c1ccccc1 (stereo not given)
Response: inactive

Request: # fetch the recorded call for `COc1cc(/C=C/c2cc(/C=C/c3ccc(O)c(OC)c3)n(-c3ccccc3)c(=O)n2)ccc1O` here
Response: inactive

----------
# Test system: CCRF-CEM leukemia
# TEST DESCRIPTION: NCI-60 one-dose screen, 48 h
# CONDITION CONTEXT: 10 µM unless noted
The panel holds about 83,000 compounds, 20% with a hit somewhere; the sample as a whole holds those more often. Activity calls are given as the source filed them. The calls were made as follows: active = growth percent below 10; inactive = the rest.
// classify into active, inactive

Illustrative cases are given below, each with its answer.
MOLECULE: CN1CCN(c2ccc3nc(-c4[nH]ncc4Nc4ncnc5c4OCCCN5)[nH]c3c2)CC1
MEASUREMENT TARGET: CCRF-CEM leukemia
CLASS NAME: active
//
MOLECULE: O=C1c2cccc3cccc(c23)C(=O)N1CC#Cc1ccc2c3c(cccc13)C(=O)N(CCO)C2=O
MEASUREMENT TARGET: CCRF-CEM leukemia
CLASS NAME: inactive
//
MOLECULE: Cc1cccc(C)c1NCc1nc(-c2ccccc2)n[nH]1
MEASUREMENT TARGET: CCRF-CEM leukemia
CLASS NAME: inactive
//
MOLECULE: Cn1c2c(Cl)c(Cl)ccc2c2c(C#N)c[nH]c(=O)c21
MEASUREMENT TARGET: CCRF-CEM leukemia
CLASS NAME: inactive
//
MOLECULE: Clc1ccc(Cn2cc(-c3nc4ccc(Br)nc4n3Cc3ccc(Cl)cc3)c3cccnc32)cc1
MEASUREMENT TARGET: CCRF-CEM leukemia
CLASS NAME: inactive

Proceed to the following item.
Request: Could you kindly confirm the outcome this assay logged for `Cc1ccc(N(CC(=O)Nc2ccc(S(=O)(=O)N3CCC(N4CCCC4)CC3)cc2)S(=O)(=O)c2ccc(Cl)cc2)cc1` ?
Response: active

----------
# Test system: T-47D breast
# TEST DESCRIPTION: NCI-60 one-dose screen, 48 h
# CONDITION CONTEXT: 10 µM unless noted
The panel holds about 83,000 compounds, 20% with a hit somewhere; the sample as a whole holds those more often. The source made the active and inactive calls. The calls were made as follows: active = growth percent below 10; inactive = the rest.
# valid calls are active, inactive; nothing else

Request: What is the recorded call for this compound in the test? `O=C(CI)Nc1ccc(O)c2ccccc12`
Response: active

Request: Hello, I am checking results. What call was entered for `Nc1nc2c3ccncc3cc(-c3cccc(Cl)c3)c2c2cnccc12` ?
Response: inactive

Request: How did this test come out for `COc1cc(-c2cc3ncccc3c3nc(N)c4cccnc4c23)cc(OC)c1OC` ?
Response: inactive

Request: # lookup: test call for `C[C@]12CC[C@@H]3c4ccc(O)cc4CC[C@H]3[C@@H]1C[C@H](O)[C@@H]2O`
Response: inactive

Request: What outcome does the record of this test show for C#Cc1cccc(NC(=O)C2CCCN(C(=O)CCl)C2)c1 (centres undefined) ?
Response: inactive

Request: Would you mind telling me which call this test gave `COc1ccc2c(c1)c(-c1nc(-c3cn(C)c4ncccc34)cs1)cn2CCCN1CCCCC1` ?
Response: inactive

Request: Each compound tested received a call. Report the one for `N#Cc1cnc2cc(OC[C@@H](O)CO)c(NC(=O)C3CCCC3)cc2c1Nc1ccc(OCc2cccc(F)c2)c(Cl)c1` .
Response: active

Request: Fill in: this test's call for `C=C(C)[C@@H]1CC[C@]2(CN)CC[C@]3(C)[C@H](CC[C@@H]4[C@@](C)(CCCN)[C@H](C(=C)C)CC[C@]43C)[C@@H]12` is ___
Response: inactive

Request: Per the records of this test, what outcome belongs to `C(=C\c1c[nH]c2ccccc12)/c1ccc2ccccc2n1` ?
Response: inactive

Request: Please let me know the test result on file for `NCCn1cc(-c2nc(-c3c[nH]c4ncccc34)cs2)c2cc(F)ccc21` .
Response: inactive

Request: Name the outcome recorded for `N#C/C(=C\c1ccc(-c2ccccc2)o1)c1nc(-c2ccco2)cs1` in the assay.
Response: active

Request: What was the test verdict on `C[C@@H](C(=O)O)c1ccc2c3cc(Cl)ccc3n(Cc3cc(=O)oc4ccc(Cl)cc34)c2c1` ?
Response: inactive

Request: For COc1ccc(C2c3ccccc3NC(=O)N2C2CCN(C)CC2)c(OC)c1 (centres undefined) , what call appears in the results of this test?
Response: inactive

Request: What outcome does the record of this test show for `Oc1cccc2oc(=S)[nH]c12` ?
Response: inactive

Request: Could you please tell me the result logged for `COc1ccc2c(c1)C/C(=C\c1cc(-c3cc(OC)c(OC)c(OC)c3)n[nH]1)C2=O` in this assay?
Response: inactive

Request: Tell me the assay call for `C[C@@H]1CCCCCCCCC[C@H](O)C(=O)C[C@@H](SC[C@@H](O)C(=O)O)C(=O)O1` please.
Response: inactive

----------
Listing: growth of selected molecules
# Tested on: ACHN renal
# TEST DESCRIPTION: NCI-60 one-dose screen, 48 h (100 = growth as untreated, 0 = no growth, -100 = all killed)
# CONDITION CONTEXT: 10 µM unless noted
About 83,000 compounds went through this panel and 20% of them were active in at least one assay; those are over-represented in the sample as a whole.
Numbers only; they are read as %.

Consider the worked cases shown below.
MOLECULE: COc1cccc(-c2nn(-c3ccccc3)cc2-c2ccnc(NCCNS(=O)(=O)c3cccc(F)c3)c2)c1
READOUT UNITS: %
growth: 21.7
//
MOLECULE: CC1(C)CC[C@]2(CO)CC[C@]3(C)C(=CC[C@@H]4[C@@]5(C)CC[C@H](NCO)C(C)(C)[C@@H]5CC[C@]43C)[C@@H]2C1
READOUT UNITS: %
growth: -69.2
//
MOLECULE: Cc1csc(Nc2nc(-c3cccc(Br)c3)nc(C(Cl)(Cl)Cl)n2)n1
READOUT UNITS: %
growth: 0.817
//
MOLECULE: CC(C)=CCC/C(C)=C/CC/C(C)=C/CC/C(C)=C/CSC[C@H](NC(=O)CCCCCN1CCN(C)CC1)C(=O)NC1CCCCC1
READOUT UNITS: %
growth: 83.4
//
MOLECULE: COc1cc(-c2cc3ncccc3c3nc(OCCN(C)C)c4cccnc4c23)cc(OC)c1OC
READOUT UNITS: %
growth: -74.5
//
MOLECULE: Cc1ccc(-c2nc([P+](c3ccccc3)(c3ccccc3)c3ccccc3)c(N3C[C@H]4C[C@H](C3)c3cccc(=O)n3C4)o2)cc1
READOUT UNITS: %
growth: 109
//
MOLECULE: COc1cc2ncnc(Nc3ccc(Oc4ccnc(C)c4)c(C)c3)c2cc1NC(=O)CC1CCSS1 (stereo not drawn)
READOUT UNITS: %
growth: 10.5

Next up:
Request: Need growth, item c1ccc(CN2C(c3ccccc3)=Nc3ccccc3C2c2c[nH]c3ccccc23)cc1 (stereo not drawn)
Response: 51.4

----------
# growth listing for each entry below
# System: HT29 colon
# TEST DESCRIPTION: NCI-60 one-dose screen, 48 h (100 = growth as untreated, 0 = no growth, -100 = all killed)
# CONDITION CONTEXT: 10 µM unless noted
# Method: Growth inhibition of the HT29 human tumor cell line is measured as a screen for anti-cancer activity. Cells are grown in 96 well plates and exposed to the test compound for 48 hours. Compounds are tested at a single concentration, which is 10^-5 M for most compounds. The reported endpoint is percent growth (GI% or GIPRCNT), where numbers from 0 - 100% represent growth inhibition, and numbers from -100% - 0 represent cell death. For example, a value of 40 represents 60% growth inhibition. […]
About 83,000 compounds went through this panel and 20% of them were active in at least one assay; those are over-represented in the sample as a whole.
# output: bare number, implied unit %

MOLECULE: COc1cc(-c2cc3ncccc3c3nc(N)c4cccnc4c23)cc(OC)c1OC
growth, %: 4.14

MOLECULE: O=S(=O)(NCCNc1cc(-c2cn(-c3ccccc3)nc2-c2cccc(O)c2)ccn1)c1ccc(Cl)cc1
growth, %: 0.572

MOLECULE: CCCCC/C(=C\c1ccccc1)C1OC(C)C(C)O1 (stereo unspecified)
growth, %: 81.3

MOLECULE: CC1(C)c2ccccc2C(=O)C1(Br)Cc1ccccc1 (stereo unspecified)
growth, %: 67.4

MOLECULE: CCc1nnc(NC(=O)c2ccoc2COc2ccccc2)s1
growth, %: 28.6

Request: Look up growth for this molecule: Nc1nc(Br)nc2c1ncn2C1CC(O)C(CO)O1 (stereo unspecified)
Response: 66.3

Request: // growth lookup, key: `COc1cccc(-c2nn(-c3ccccc3)cc2-c2ccnc(NCCNS(=O)(=O)c3ccc(Cl)cc3)c2)c1`
Response: 11.6
